- experimentSummary: Stability test (storage in isopropyl myristate, HPLC peak area ratio)
- Format: physicochemical
- conditionLabel: storage at 60° C. for 1 week, HPLC peak area ratio
outcomeMeasure: Area ratio: Closed ring product (%)

compound | valueMeasured
COCCOCCOC(=O)[C@@H]1CCCN1C(=O)[C@H](C)N[C@@H](CCc1ccccc1)C(=O)O | 0.0
C[C@H](N[C@@H](CCc1ccccc1)C(=O)O)C(=O)N1CCC[C@H]1C(=O)OCCCO | 0.0
COCCOC(=O)[C@@H]1CCCN1C(=O)[C@H](C)N[C@@H](CCc1ccccc1)C(=O)O | 0.0
CCOC(=O)[C@H](CCc1ccccc1)N[C@@H](C)C(=O)N1CCC[C@H]1C(=O)O [Enalapril, reference compound] | 48.4
C[C@H](N[C@@H](CCc1ccccc1)C(=O)O)C(=O)N1CCC[C@H]1C(=O)OCCCCO | 0.0
C[C@H](N[C@@H](CCc1ccccc1)C(=O)O)C(=O)N1CCC[C@H]1C(=O)OCCO | 0.0

Hey, just so you know, these numbers are from patent US7323489B2.
